Data provenance: patent US12503436B2

target: STING (Homo sapiens, UniProt Q86WV6, G230A/H232R/R293Q/R71H); test: STING reporter assay in THP1-Dual KO-IFNAR2 cells (2′3′cGAMP stimulation, luciferase reporter); conditions: 15 μM 2′3′cGAMP stimulation, 24 h, read-out: Pharmaron, THP1_IFNAR2 STING 24 h Luci Normalized: GeoMean EC50
Sequence (Q86WV6 whole entry R71H/G230A/H232R/R293Q): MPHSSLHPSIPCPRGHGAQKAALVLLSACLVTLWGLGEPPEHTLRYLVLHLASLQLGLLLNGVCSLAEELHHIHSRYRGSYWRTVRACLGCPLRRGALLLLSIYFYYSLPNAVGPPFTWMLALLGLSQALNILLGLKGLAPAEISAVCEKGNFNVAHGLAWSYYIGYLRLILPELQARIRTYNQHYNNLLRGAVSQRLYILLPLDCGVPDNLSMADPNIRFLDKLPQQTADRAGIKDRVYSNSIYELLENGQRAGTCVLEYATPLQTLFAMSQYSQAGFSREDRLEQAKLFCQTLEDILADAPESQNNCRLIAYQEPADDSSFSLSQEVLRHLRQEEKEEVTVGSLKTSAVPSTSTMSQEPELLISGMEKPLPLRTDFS
Task for the reader: assign each of the following compounds its reported EC50.

Study these solved cases before continuing.
# compound, experimental.target, EC50
data = [
    ("O=C(Nc1c[nH]c2ccc(OCC[C@@H]3C[C@@H]4CN(CC(F)(F)F)C[C@@H]4C3)cc12)C1COC1 [Compound 383]", "STING (Homo sapiens, UniProt Q86WV6, G230A/H232R/R293Q/R71H)", "200 to 1000 nM"),
    ("CC(=O)Nc1c[nH]c2ccc(OC3CCc4cc(C(F)(F)F)ccc4C3)cc12 (stereo not shown) [Compound 436]", "STING (Homo sapiens, UniProt Q86WV6, G230A/H232R/R293Q/R71H)", "40 to 200 nM"),
    ("O=C(Nc1c[nH]c2ccc(O[C@H]3C[C@H](c4ccc(C(F)(F)F)cc4)C3)cc12)C1CN(CC(F)(F)F)C1 [Compound 244]", "STING (Homo sapiens, UniProt Q86WV6, G230A/H232R/R293Q/R71H)", "40 to 200 nM"),
]

# ---- query compound ----
Report measured EC50; entry is CC(=O)Nc1c[nH]c2ccc(CCOc3ccc(C(F)(F)F)cc3Br)cc12 [Compound 544] 200 to 1000 nM

---

Target: STING (Homo sapiens, UniProt Q86WV6, G230A/H232R/R293Q/R71H)
Assay: STING reporter assay in THP1-Dual KO-IFNAR2 cells (2′3′cGAMP stimulation, luciferase reporter)
Settings: 15 μM 2′3′cGAMP stimulation, 24 h, read-out: Pharmaron, THP1_IFNAR2 STING 24 h Luci Normalized: GeoMean EC50
Protocol: STING pathway activation by the compounds described herein was measured using THP1-Dual™ cells (KO-IFNAR2). […] 2 mL of solution A and 2 ml Solution B was mixed and incubated for 20 min at room temperature (RT). […] Luciferase reporter activity was then measured. EC50 values were calculated by using standard methods known in the art. […] Luciferase reporter activity was then measured. EC50 values were calculated by using standard methods known in the art.
pEC50: −log10 of the molar value.
quantity.measured: pEC50

Okay, here is my list. What is pEC50 for each of these?
1. CC(=O)Nc1c[nH]c2ccc(CCOc3ccc4c(c3)CCCC4)cc12 [Compound 490]
2. CC(=O)Nc1c[nH]c2ccc(C(C)C[C@@H]3C[C@@H]4CN(CC(F)(F)F)C[C@@H]4C3)cc12 (stereo partly shown) [Compound 538]
3. CC(=O)Nc1c[nH]c2ccc(OCCC34CC(c5ccccc5)(C3)C4)cc12 [Compound 262]
4. O=C(Nc1c[nH]c2ccc(OCCc3ccc(C(F)(F)F)nc3)cc12)C1CN(CC(F)(F)F)C1 [Compound 195]
5. CC(=O)Nc1c[nH]c2ccc(CCOC3CN(CC(F)(F)F)C3)cc12 [Compound 377]
6. CC(=O)Nc1c[nH]c2c(Br)cc(CCOc3ccc(C(F)(F)F)cc3)cc12 [Compound 578]
7. CC1(C(=O)Nc2c[nH]c3ccc(OC4CC(c5ccc(C(F)(F)F)nc5)C4)cc23)CC1 (stereo not shown) [Compound 376]

1. 6.70 to 7.40
2. 5.30 to 6.00
3. 6.70 to 7.40
4. 6.00 to 6.70
5. 4.00 to 5.30
6. 5.30 to 6.00
7. 6.00 to 6.70

Okay, here is my list. What is pEC50 for each of these?
1. CC(C)(C)OC(=O)N1CC(C)(C(=O)Nc2c[nH]c3ccc(OCCc4ccc(C(F)(F)F)cc4)cc23)C1 [Compound 570]
2. CC(=O)Nc1c[nH]c2ccc(CCOc3cncc(C(F)(F)F)c3)cc12 [Compound 481]
3. CC(=O)Nc1c[nH]c2ccc(CC(Cc3ccc(C(F)(F)F)cc3)NC(C)=O)cc12 (stereo not shown) [Compound 516]
4. CCO/C=C/c1ccc2[nH]cc(NC(=O)C3CCC3)c2c1 [Compound 143]
5. C[C@]1(C(=O)Nc2c[nH]c3ccc(OCCc4ccc(C(F)(F)F)cc4)cc23)C[C@@H](O)C1 [Compound 445]

["6.00 to 6.70", "5.30 to 6.00", "4.00 to 5.30", "5.30 to 6.00", "6.70 to 7.40"]

Okay, here is my list. What is pEC50 for each of these?
1. CC(=O)Nc1c[nH]c2cc(F)c(CCOc3ccc(C(F)(F)F)cc3)cc12 [Compound 223]
2. CC(=O)Nc1c[nH]c2ccc(CCOc3cnc(C(F)(F)F)nc3)cc12 [Compound 184]

["6.70 to 7.40", "4.00 to 5.30"]

Okay, here is my list. What is pEC50 for each of these?
1. C[C@H]1C[C@@H](C(=O)Nc2c[nH]c3ccc(OCC[C@@H]4C[C@@H]5CN(CC(F)(F)F)C[C@@H]5C4)cc23)C1 [Compound 150]
2. CC1(C(=O)Nc2c[nH]c3ccc(C(O)CCc4ccc(C(F)(F)F)cc4)cc23)CC1 (stereo not shown) [Compound 172]

6.00 to 6.70
6.00 to 6.70
